- Target desc: furin, P09958;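 also: purified furin at 1:10 enzyme:substrate in 50 mM HEPES pH 7.5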
- Sequence (P09958 whole entry): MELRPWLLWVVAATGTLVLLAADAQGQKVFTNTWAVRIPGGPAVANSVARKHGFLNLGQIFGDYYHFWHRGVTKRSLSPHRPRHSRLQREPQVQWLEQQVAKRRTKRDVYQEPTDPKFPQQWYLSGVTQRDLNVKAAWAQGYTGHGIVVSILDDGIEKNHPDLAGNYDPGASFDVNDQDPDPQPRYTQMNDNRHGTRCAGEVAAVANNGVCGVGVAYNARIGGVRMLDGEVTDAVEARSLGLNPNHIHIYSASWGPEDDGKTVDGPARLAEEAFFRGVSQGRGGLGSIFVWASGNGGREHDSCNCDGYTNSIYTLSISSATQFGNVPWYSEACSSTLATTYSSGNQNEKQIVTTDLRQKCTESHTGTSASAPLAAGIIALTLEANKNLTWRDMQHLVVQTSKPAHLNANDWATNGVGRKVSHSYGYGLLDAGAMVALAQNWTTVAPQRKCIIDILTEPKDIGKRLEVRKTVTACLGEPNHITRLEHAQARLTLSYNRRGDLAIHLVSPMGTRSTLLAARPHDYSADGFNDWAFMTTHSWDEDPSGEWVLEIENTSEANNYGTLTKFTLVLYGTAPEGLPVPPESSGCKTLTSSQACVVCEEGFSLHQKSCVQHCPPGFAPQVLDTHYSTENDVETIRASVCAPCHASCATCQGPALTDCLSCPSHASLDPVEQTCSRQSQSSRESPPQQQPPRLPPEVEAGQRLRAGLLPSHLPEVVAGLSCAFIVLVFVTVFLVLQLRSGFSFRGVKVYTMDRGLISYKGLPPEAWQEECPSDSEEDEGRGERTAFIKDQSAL
- Protocol notes: furin cleavage Z-score vs untreated control; higher = more cleavage, active = 3.5 or more, inactive = 1 or less, 8 variable residues between constant flanks
- Stated conditions: 7.5 min
The other results are listed elsewhere or left out. No count for the full screen is at hand.
Measurement kind: furin cleavage Z-score

Worked examples, 5 sequences total:
Macromolecule sequence	Result
CARSRRGIFIAGNASASA [FS-2312]	1.57
CARRGRPGLKAGNASASA [FS-2066]	-0.499 (inactive)
CATLERRKRSAGNASASA [FS-1172]	11.2 (active)
CAVLQRSKRGAGNASASA [FS-1177]	10.8 (active)
CARVRRANTFAGNASASA [FS-2622]	3.44

Q. Item CAMCTTPCSGAGNASASA [HC1946] has what recorded furin cleavage Z-score?
A. 0.117 (inactive)

Q. Entry CARKARYAIQAGNASASA [FS-1901] : reported furin cleavage Z-score = ?
A. 1.15

Q. Recorded furin cleavage Z-score for CATIPCSGSWAGNASASA [HC1844] , please?
A. -0.402 (inactive)

Q. Value lookup for furin cleavage Z-score; key = CARFDRQIFIAGNASASA [FS-2012]
A. -0.31 (inactive)

Q. Query (sequence): CARVMRWNSKAGNASASA [FS-3120] ; field requested: furin cleavage Z-score
A. -0.31 (inactive)

Q. What does the data say about its furin cleavage Z-score? Entry: CAMEECWQHLAGNASASA [HC27]
A. 1.1

Q. What value of measured furin cleavage Z-score is listed for CATTPCSGSFAGNASASA [HC1927] ?
A. -0.645 (inactive)

Q. State the recorded furin cleavage Z-score for this entry: CAEVVTSTWAAGNASASA [HC2243]
A. -0.622 (inactive)

Q. Tell me the measured furin cleavage Z-score of CARVRRRSVQAGNASASA [FS-3175] , please.
A. 0.273 (inactive)

Q. furin cleavage Z-score for CAVRLRAYMNAGNASASA [HC929] ?
A. 0.615 (inactive)

Q. Param item = CASTPCSVHLAGNASASA [HC2530] ; retrieve measured furin cleavage Z-score.
A. -0.933 (inactive)

Q. Request the reported furin cleavage Z-score associated with CAGSGKSTKVAGNASASA [HC777]
A. -0.846 (inactive)

Q. Return reported furin cleavage Z-score; argument: CAEDAASLRAAGNASASA [HC1536]
A. 1.18
